Value source: ChEMBL document CHEMBL1150093

Test system: Radical scavenging activity
ASSAY: Antioxidant activity assessed as DPPH radical scavenging activity
Format: functional
MEASURED_QUANTITY: log10 of EC50 (log10 of the value in mg/mL)
Use the decimal logarithm of EC50 (mg/mL).

For C=C(C)C1CC=C(C)C(=O)C1 (stereo not drawn) [CARVONE] , what is its reported log10 of EC50?
1.07

# get_value(readout='log10 of EC50', item= CC1=CCC(C(C)C)=CC1 [GAMMA-TERPINENE] )
1.34

So what does the record say about log10 of EC50 for CC1=CCC(O)(C(C)C)CC1 (stereo not drawn) [TERPINEOL] ?
1.73

So what does the record say about log10 of EC50 for C=C1CC/C=C(/C)CC[C@@H]2[C@@H]1CC2(C)C [CARYOPHYLLENE] ?
-2.43

Param item = CC1=CCC2CC1C2(C)C (stereo not drawn) [ALPHA-PINENE] ; retrieve measured log10 of EC50.
2.52

Quick one: log10 of EC50 for Cc1ccc(C(C)C)cc1 [P-CYMENE] ?
2.61

Fill blank: measured log10 of EC50 of the compound CC1(C)C2CCC1(C)C(O)C2 (stereo not drawn) [BORNEOL] is ____.
0.38

Any idea what its log10 of EC50 is? The compound is C=CC(=C)CCC=C(C)C [MYRCENE]
2.39

Would you mind telling me what log10 of EC50 value was observed for C=C1CCC2CC1C2(C)C (stereo not drawn) [BETA-PINENE] ?
2.34

I'd like to know its log10 of EC50. The compound in question is CC1=CC[C@@H](C(C)(C)O)CC1 [ALPHA-TERPINEOL]
-0.83

// lookup log10 of EC50 for C=C1CCC2(C(C)C)CC12 (stereo not drawn) [SABINENE]
2.37

Report log10 of EC50 for C=C1C=CC(C(C)C)CC1 (stereo not drawn) [BETA-PHELLANDRENE] please.
2.11

Sample CC12CCC(CC1=O)C2(C)C (stereo not drawn) [CAMPHOR] — what was its log10 of EC50?
0.38
